Tested on: 926638-142-R-J1-PDC complex spheroid viability
Experiment: Anticancer human tumor 926638-142-R-J1-PDC patient-derived endometrial carcinoma cell line growth inhibition [POLQ]
Conditions: second compound 0.316 µM; first compound 0.0316 µM; stronger effect = lower value
Listing: viability, T/C of selected molecules
API: value field is a number in %; no unit string.

[[record]]
molecule = "CCCS(=O)(=O)Nc1ccc(F)c(C(=O)c2c[nH]c3ncc(-c4ccc(Cl)cc4)cc23)c1F + COC1C(OC(N)=O)C(O)C(Oc2ccc3c(O)c(NC(=O)c4ccc(O)c(CC=C(C)C)c4)c(=O)oc3c2C)OC1(C)C"
number = 110

[[record]]
molecule = "COc1cc(C2c3cc4c(cc3C(OC3OC5COC(C)OC5C(O)C3O)C3COC(=O)C23)OCO4)cc(OC)c1O (stereo not given) + Nc1ccc(C#CCN(C(=O)Cc2ncc(C(F)(F)F)cc2C(F)(F)F)c2ccc(F)cc2)nn1"
number = 106

[[record]]
molecule = "CC1COCCN1c1cc(C2(O)CC3CCC(C2)O3)c2cnn(-c3ccn[nH]3)c2n1 (stereo not given) + COC1C(OC(N)=O)C(O)C(Oc2ccc3c(O)c(NC(=O)c4ccc(O)c(CC=C(C)C)c4)c(=O)oc3c2C)OC1(C)C"
number = 102

[[record]]
molecule = "COc1cccc(OCCCN)c1-c1cc(Nc2cnc(C#N)cn2)n[nH]1 + COC1C(OC(N)=O)C(O)C(Oc2ccc3c(O)c(NC(=O)c4ccc(O)c(CC=C(C)C)c4)c(=O)oc3c2C)OC1(C)C"
number = 62.7

[[record]]
molecule = "COc1cccc2c1C(=O)c1c(O)c3c(c(O)c1C2=O)CC(O)(C(=O)CO)CC3OC1CC(N)C(O)C(C)O1 (stereo not given) + Cc1cccc(N(C)C(=O)C2C(O)CCN2c2nc(C)cc(C(F)(F)F)c2C#N)c1"
number = 79.3

[[record]]
molecule = "CCc1cc2c(N3CCc4c(cc(Cn5ccnc5)cc4-c4cn(C)nc4C(F)(F)F)C3=O)cc(C)nc2c(OC)n1 + Nc1ccc(C#CCN(C(=O)Cc2ncc(C(F)(F)F)cc2C(F)(F)F)c2ccc(F)cc2)nn1"
number = 83


Here is another molecule to look at.
Exercise: What value of viability, T/C has been reported for the following molecule? CC(C)n1c(=O)n(C)c2cnc3cc(F)c(-c4ccc(OCCCN5CCCCC5)nc4)cc3c21 + COC1C(OC(N)=O)C(O)C(Oc2ccc3c(O)c(NC(=O)c4ccc(O)c(CC=C(C)C)c4)c(=O)oc3c2C)OC1(C)C
Key: 101

====

Listing: viability, T/C of selected compounds
Test system: 926638-142-R-J1-PDC complex spheroid viability
Assay: Anticancer human tumor 926638-142-R-J1-PDC cell line growth inhibition [POLQ];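 further: spheroids exposed to drugs for one week before readout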;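 on viability, T/C: percent viability relative to DMSO vehicle control wells set as 100%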
Conditions: second compound 0.1 µM; first compound 0.0316 µM; stronger effect = lower value
API: value field is a number in %; no unit string.

Before answering, review these 5 worked examples.
[[record]]
compound = "CCCS(=O)(=O)Nc1ccc(F)c(C(=O)c2c[nH]c3ncc(-c4ccc(Cl)cc4)cc23)c1F + Nc1ccc(C#CCN(C(=O)Cc2ncc(C(F)(F)F)cc2C(F)(F)F)c2ccc(F)cc2)nn1"
assay_system = "926638-142-R-J1-PDC complex spheroid viability"
value_units = "%"
number = 111

[[record]]
compound = "COc1cc2cc(C(=O)CCC(=O)O)sc2cc1OC + Nc1ccc(C#CCN(C(=O)Cc2ncc(C(F)(F)F)cc2C(F)(F)F)c2ccc(F)cc2)nn1"
assay_system = "926638-142-R-J1-PDC complex spheroid viability"
value_units = "%"
number = 111

[[record]]
compound = "CC[C@@]1(O)C(=O)OCc2c1cc1n(c2=O)Cc2cc3c(CN(C)C)c(O)ccc3nc2-1 + COC1C(OC(N)=O)C(O)C(Oc2ccc3c(O)c(NC(=O)c4ccc(O)c(CC=C(C)C)c4)c(=O)oc3c2C)OC1(C)C"
assay_system = "926638-142-R-J1-PDC complex spheroid viability"
value_units = "%"
number = 72.1

[[record]]
compound = "CCc1cc2c(N3CCc4c(cc(Cn5ccnc5)cc4-c4cn(C)nc4C(F)(F)F)C3=O)cc(C)nc2c(OC)n1 + Cc1cccc(N(C)C(=O)C2C(O)CCN2c2nc(C)cc(C(F)(F)F)c2C#N)c1"
assay_system = "926638-142-R-J1-PDC complex spheroid viability"
value_units = "%"
number = 90.2

[[record]]
compound = "CC1COCCN1c1cc(C2(O)CC3CCC(C2)O3)c2cnn(-c3ccn[nH]3)c2n1 (stereo unspecified) + Nc1ccc(C#CCN(C(=O)Cc2ncc(C(F)(F)F)cc2C(F)(F)F)c2ccc(F)cc2)nn1"
assay_system = "926638-142-R-J1-PDC complex spheroid viability"
value_units = "%"
number = 105


Exercise: What value of viability, T/C has been reported for the following compound? COc1cccc2c1C(=O)c1c(O)c3c(c(O)c1C2=O)CC(O)(C(=O)CO)CC3OC1CC(N)C(O)C(C)O1 (stereo unspecified) + Cc1cccc(N(C)C(=O)C2C(O)CCN2c2nc(C)cc(C(F)(F)F)c2C#N)c1
Key: 68.6

Exercise: What value of viability, T/C has been reported for the following compound? O=C(Nc1ccc(O)c(NS(=O)(=O)c2ccc(F)cc2)c1)c1ccc(-c2ccccc2)cc1 + Nc1ccc(C#CCN(C(=O)Cc2ncc(C(F)(F)F)cc2C(F)(F)F)c2ccc(F)cc2)nn1
Key: 105

Exercise: What value of viability, T/C has been reported for the following compound? CCc1c2c(nc3ccc(O)cc13)-c1cc3c(c(=O)n1C2)COC(=O)[C@]3(O)CC + Cc1cccc(N(C)C(=O)C2C(O)CCN2c2nc(C)cc(C(F)(F)F)c2C#N)c1
Key: 35.1

Exercise: What value of viability, T/C has been reported for the following compound? CCCS(=O)(=O)Nc1ccc(F)c(C(=O)c2c[nH]c3ncc(-c4ccc(Cl)cc4)cc23)c1F + Cc1cccc(N(C)C(=O)C2C(O)CCN2c2nc(C)cc(C(F)(F)F)c2C#N)c1
Key: 117

Exercise: What value of viability, T/C has been reported for the following compound? COc1ccc([C@@H](O)c2cc(-c3ncnc4cc(N5CCOCC5)ccc34)c(F)cc2Cl)nn1 + Cc1cccc(N(C)C(=O)C2C(O)CCN2c2nc(C)cc(C(F)(F)F)c2C#N)c1
Key: 99

Exercise: What value of viability, T/C has been reported for the following compound? CC1COCCN1c1cc(C2(O)CC3CCC(C2)O3)c2cnn(-c3ccn[nH]3)c2n1 (stereo unspecified) + COC1C(OC(N)=O)C(O)C(Oc2ccc3c(O)c(NC(=O)c4ccc(O)c(CC=C(C)C)c4)c(=O)oc3c2C)OC1(C)C
Key: 108

====

Listing: IC50 of selected compounds
System: 926638-142-R-J1-PDC complex spheroid viability
Test: Anticancer human tumor 926638-142-R-J1-PDC cell line growth inhibition [POLQ];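 further: spheroids exposed to drugs for one week before readout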
Conditions: curve of first compound; second compound 10 µM

[[record]]
compound = "CC(=O)O[C@H]1C(=O)[C@@]2(C)[C@H]([C@H](OC(=O)c3ccccc3)[C@]3(O)C[C@H](OC(=O)[C@H](O)[C@@H](NC(=O)c4ccccc4)c4ccccc4)C(C)=C1C3(C)C)[C@]1(OC(C)=O)CO[C@@H]1C[C@@H]2O + COC1C(OC(N)=O)C(O)C(Oc2ccc3c(O)c(NC(=O)c4ccc(O)c(CC=C(C)C)c4)c(=O)oc3c2C)OC1(C)C"
result = "> 3 µM"


Here is another compound to look at.
Exercise: What value of IC50 has been reported for the following compound? CC(C)n1c(=O)n(C)c2cnc3cc(F)c(-c4ccc(OCCCN5CCCCC5)nc4)cc3c21 + Nc1ccc(C#CCN(C(=O)Cc2ncc(C(F)(F)F)cc2C(F)(F)F)c2ccc(F)cc2)nn1
Key: > 10 µM

====

Tested on: 926638-142-R-J1-PDC complex spheroid viability
Test: Anticancer human tumor 926638-142-R-J1-PDC cell line growth inhibition [POLQ];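 further: spheroids exposed to drugs for one week before readout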;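 on viability, T/C: percent viability relative to DMSO vehicle control wells set as 100%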
Details: second compound 0.0316 µM; first compound 0.316 µM; stronger effect = lower value
MEASURED_PARAMETER: viability, T/C (%)
API: value field is a number in %; no unit string.

Exercise: What value of viability, T/C has been reported for the following compound? COc1cc(C2c3cc4c(cc3C(OC3OC5COC(C)OC5C(O)C3O)C3COC(=O)C23)OCO4)cc(OC)c1O (stereo not given) + Nc1ccc(C#CCN(C(=O)Cc2ncc(C(F)(F)F)cc2C(F)(F)F)c2ccc(F)cc2)nn1
Key: 80.3

Exercise: What value of viability, T/C has been reported for the following compound? COc1ccc([C@@H](O)c2cc(-c3ncnc4cc(N5CCOCC5)ccc34)c(F)cc2Cl)nn1 + Nc1ccc(C#CCN(C(=O)Cc2ncc(C(F)(F)F)cc2C(F)(F)F)c2ccc(F)cc2)nn1
Key: 58.1

Exercise: What value of viability, T/C has been reported for the following compound? COc1cccc2c1C(=O)c1c(O)c3c(c(O)c1C2=O)CC(O)(C(=O)CO)CC3OC1CC(N)C(O)C(C)O1 (stereo not given) + COC1C(OC(N)=O)C(O)C(Oc2ccc3c(O)c(NC(=O)c4ccc(O)c(CC=C(C)C)c4)c(=O)oc3c2C)OC1(C)C
Key: 17.7

Exercise: What value of viability, T/C has been reported for the following compound? CC(C)n1c(=O)n(C)c2cnc3cc(F)c(-c4ccc(OCCCN5CCCCC5)nc4)cc3c21 + Cc1cccc(N(C)C(=O)C2C(O)CCN2c2nc(C)cc(C(F)(F)F)c2C#N)c1
Key: 87.6

Exercise: What value of viability, T/C has been reported for the following compound? COc1cccc(OCCCN)c1-c1cc(Nc2cnc(C#N)cn2)n[nH]1 + Cc1cccc(N(C)C(=O)C2C(O)CCN2c2nc(C)cc(C(F)(F)F)c2C#N)c1
Key: 39.5
